Test system: NCI-H23 lung
Assay: NCI tumour cell line growth inhibition, 48 h
assay.readout: TGI (µM)

{"molecule": "Cc1nc(-c2cnc(NC(C)C)n(C)c2=O)ccc1Oc1ccnc(-c2cnn(C)c2)c1", "assay.readout": "TGI", "unit.spec": "µM", "inequality.operator": ">", "reading": 100}
{"molecule": "Cc1cc(S(=O)(=O)Nc2n[nH]c(Nc3ccc4ccccc4c3)n2)c(S)cc1Cl", "assay.readout": "TGI", "unit.spec": "µM", "inequality.operator": ">", "reading": 100}
{"molecule": "CCN(CC)c1ccc(C2Nc3ccc4ccccc4c3C3=C2C(=O)CCC3)cc1 (centres undefined)", "assay.readout": "TGI", "unit.spec": "µM", "inequality.operator": ">", "reading": 100}
{"molecule": "CCOC(=O)CCC(NC(=O)c1ccc(N=Cc2nc3ccccc3nc2-c2ccccc2)cc1)C(=O)OCC (centres undefined)", "assay.readout": "TGI", "unit.spec": "µM", "inequality.operator": ">", "reading": 100}
{"molecule": "CCN(CC)CCCNc1ccc([N+](=O)[O-])c2nc3ccc(OC)cc3c(N)c12", "assay.readout": "TGI", "unit.spec": "µM", "inequality.operator": "=", "reading": 4.03}
{"molecule": "CCCCCC[C@@H](C)Nc1nc2ccccc2c2occc12", "assay.readout": "TGI", "unit.spec": "µM", "inequality.operator": "=", "reading": 6.97}
{"molecule": "CC(C)[Si]1(C(C)C)OCC2OC(n3c(C(=O)c4ccccc4)cc(=O)[nH]c3=O)CC2O[Si](C(C)C)(C(C)C)O1 (centres undefined)", "assay.readout": "TGI", "unit.spec": "µM", "inequality.operator": "=", "reading": 6.13}
{"molecule": "C[N+]1(CCC(=O)c2ccccc2)CCC2CCC(C2)C1 (centres undefined)", "assay.readout": "TGI", "unit.spec": "µM", "inequality.operator": ">", "reading": 100}
{"molecule": "O=C(Nc1ccccc1C(F)(F)F)c1ccc(NC2=C(Cl)C(=O)N(Cc3ccccc3)C2=O)cc1", "assay.readout": "TGI", "unit.spec": "µM", "inequality.operator": "=", "reading": 34.2}
